Target: T1, TNFR1 on THP-1 Lucia NF-kB reporter cells (UniProt P19438 30-455, limits assumed)
T1 sequence (looked up): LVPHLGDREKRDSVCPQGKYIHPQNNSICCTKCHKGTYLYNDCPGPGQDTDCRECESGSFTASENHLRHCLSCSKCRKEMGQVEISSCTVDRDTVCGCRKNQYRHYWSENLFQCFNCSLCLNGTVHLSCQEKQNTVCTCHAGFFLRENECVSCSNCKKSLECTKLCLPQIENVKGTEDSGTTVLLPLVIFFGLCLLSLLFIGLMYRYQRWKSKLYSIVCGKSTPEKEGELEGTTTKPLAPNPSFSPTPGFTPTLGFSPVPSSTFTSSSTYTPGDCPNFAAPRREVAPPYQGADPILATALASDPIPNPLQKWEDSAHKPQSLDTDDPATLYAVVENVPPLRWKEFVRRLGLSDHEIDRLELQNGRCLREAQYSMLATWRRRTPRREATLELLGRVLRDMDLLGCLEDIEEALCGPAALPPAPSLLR
Experiment: cell-based or functional assay
Bridge positions count the residues as written; N and C are the ends. Square brackets hold non-standard residues; d marks the D form. Primed or numbered codes have the meaning given here. Trp(βS-Me,7-OMe) = COc1cccc2c([C@H](C)[C@H](N)C(=O)O)c[nH]c12; Trp(7-CN) = N#Cc1cccc2c(C[C@H](N)C(=O)O)c[nH]c12; Trp(7-Cl) = N[C@@H](Cc1c[nH]c2c(Cl)cccc12)C(=O)O; Phe(4-CONH2) = NC(=O)c1ccc(C[C@H](N)C(=O)O)cc1; Phe(4-COOH) = N[C@@H](Cc1ccc(C(=O)O)cc1)C(=O)O; Trp(7-aza) = N[C@@H](Cc1c[nH]c2ncccc12)C(=O)O; 4Pal = N[C@@H](Cc1ccncc1)C(=O)O; NMeE = CN[C@@H](CCC(=O)O)C(=O)O; dHyp = O=C(O)[C@H]1C[C@H](O)CN1; Pipt5OH = not defined here; αMeS = C[C@](N)(CO)C(=O)O; Nle = CCCC[C@H](N)C(=O)O; Pip′ = not defined here; Sar = CNCC(=O)O
measure_name: THP-1 IC50 (nM)

Before answering, review these 3 worked examples.
cyclo([bhcLeu][SerOEt][4Pal][Pipt5OH]W[dHyp]N[4Pal][Trp(7-Cl)][αMeS][Phe(4-CONH2)][Phe(4-COOH)][Sar][Trp(βS-Me,7-OMe)]) (reading uncertain; also: printed as cyclo(bhcLeu-SerOEt-4Pal-Pipt5OH-W-dProt4OH-N-4Pal-Trp7Cl-aMeS-Phe4CONH2-Phe4COOH-Sar-SbMeW7OMe)) [SEQ ID NO. 142]: 1.1
cyclo([bhcLeu][Nle][4Pal][Pipt5OH]W[dHyp][RbOHAsn][4Pal][Trp(7-CN)][αMeS][Phe(4-CONH2)][Phe(4-COOH)][Sar][Trp(βS-Me,7-OMe)]) (reading uncertain; also: printed as cyclo(bhcLeu-Nle-4Pal-Pipt5OH-W-dProt4OH-RbOHAsn-4Pal-Trp7CN-aMeS-Phe4CONH2-Phe4COOH-Sar-SbMeW7OMe)) [SEQ ID NO. 78]: 0.7
cyclo([bhcLeu][Nle][4Pal][Pipc5CO2H]W[NMeE]N[4Pal][Trp(7-Cl)][αMeS][Phe(4-COOH)]Y[Sar][Trp(βS-Me,7-OMe)]) [SEQ ID NO. 120]: 1.4

1 = cyclo([bhcLeu][LysMe3][4Pal][Pip′]W[NMeE]N[4Pal][Trp(7-Cl)][αMeS][Phe(4-COOH)]Y[Sar][Trp(βS-Me,7-OMe)]) [SEQ ID NO. 47]
2 = {CH2CO}-[Nle][4Pal][Prot4NH2][Trp(7-aza)][NMeE]N[4Pal][Trp(7-Cl)][αMeS][Phe(4-COOH)]Y[Sar][Trp(βS-Me,7-OMe)]C-NH2 (thioether N-14) [SEQ ID NO. 125]
Ask | Select one: 1 or 2 . Criterion: greater recorded THP-1 IC50. Choose, then provide that item's label.
Reply | 2
